Target: SH3BP2 (Homo sapiens)
Construct: made in house; host or cells: HEK293 (transient transfection), unpurified extract
Sequence (P78314 whole entry): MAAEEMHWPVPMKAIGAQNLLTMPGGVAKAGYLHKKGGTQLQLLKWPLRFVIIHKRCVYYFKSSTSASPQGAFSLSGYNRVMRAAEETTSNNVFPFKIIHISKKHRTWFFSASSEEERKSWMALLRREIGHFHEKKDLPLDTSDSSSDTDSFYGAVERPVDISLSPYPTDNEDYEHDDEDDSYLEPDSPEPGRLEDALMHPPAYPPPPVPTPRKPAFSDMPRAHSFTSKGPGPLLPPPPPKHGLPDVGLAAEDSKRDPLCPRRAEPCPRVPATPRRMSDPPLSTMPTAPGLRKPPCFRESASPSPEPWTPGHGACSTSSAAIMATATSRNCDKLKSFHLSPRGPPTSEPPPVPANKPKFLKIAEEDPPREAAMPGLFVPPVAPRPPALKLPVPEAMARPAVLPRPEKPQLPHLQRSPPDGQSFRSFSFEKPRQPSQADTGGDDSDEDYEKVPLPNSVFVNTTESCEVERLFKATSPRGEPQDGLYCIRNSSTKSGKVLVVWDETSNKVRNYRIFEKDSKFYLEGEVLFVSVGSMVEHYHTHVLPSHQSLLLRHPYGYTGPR
Assay: biochemical
Assay type: binding
Details: read-out: percent of DMSO vehicle control
Non-standard residues stand in square brackets, D forms with d. Residues, ends and D or L forms follow the SMILES beside them. *: point of attachment. pY = N[C@@H](Cc1ccc(OP(=O)(O)O)cc1)C(=O)O; Caffeoyl = O=C(/C=C/c1ccc(O)c(O)c1)*
REPORTED_METRIC: remaining activity at 10 µM (%)
Numbers only, in %.

COMPOUND | remaining activity at 10 µM (%)
NC(=O)CC[C@H](NC(=O)[C@@H]1CC[C@@H]2CCN(C(=O)CCCCCC#Cc3cccc4c3CN(C3CCC(=O)NC3=O)C4=O)C[C@H](NC(=O)c3cc4cc(C(F)(F)P(=O)(O)O)ccc4[nH]3)C(=O)N21)C(=O)NC(c1ccccc1)c1ccccc1 (stereo partly shown) | 91.5
CC(=O)N[C@@H](Cc1ccc(CP(=O)(O)O)cc1)C(=O)NC1(C(=O)N[C@@H](CC(N)=O)C(=O)NCCCc2c(O)ccc3ccccc23)CCCCC1 | 77.8

I have 2 compounds here; please give me remaining activity at 10 µM for each one.
1. CC[C@H](C)[C@H](NC(=O)[C@H](CCC(=O)O)NC(=O)[C@H](CCC(=O)O)NC(=O)[C@H](Cc1ccc(OP(=O)(O)O)cc1)NC(=O)/C=C/c1ccc(O)c(O)c1)C(=O)N[C@@H](CCC(=O)O)C(=O)O [Caffeic acid-pYEEIE] (Caffeoyl-[pY]EEIE-OH)
2. CC(=O)N1CC[C@H]2CC[C@@H](C(=O)N[C@@H](CCC(N)=O)C(=O)NC(c3ccccc3)c3ccccc3)N2C(=O)[C@@H](NC(=O)c2cc3cc(C(F)(F)P(=O)(O)O)ccc3[nH]2)C1

Result:
[0.9, 131]

###

Field: remaining activity at 10 µM. Provide a value for each of the compounds that follow.
Molecular target: CISH (Homo sapiens)
Construct: the DNA-tagged SH2 domain concentrations used in this study were <0.1 nM; made in house; host or cells: HEK293 (transient transfection; unpurified extract)
Sequence (Q9NSE2 82-163 limits assumed): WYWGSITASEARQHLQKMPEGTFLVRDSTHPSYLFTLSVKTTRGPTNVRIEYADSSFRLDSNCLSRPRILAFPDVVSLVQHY
Assay: biochemical
Type: binding
Details: primary screen, 10 μM; read-out: percent of DMSO vehicle control
Answers are plain numbers, in %.

Sample answers from the record:
COMPOUND | SYSTEM_UNDER_TEST | remaining activity at 10 µM [%]
CC(C)(C)[C@H](NC(=O)/C=C/c1ccc(OP(=O)(O)O)cc1)C(=O)N1CCC[C@H]1C(=O)N(c1ccccc1)c1ccc(I)cc1 [STAT6-IN-3] | CISH (Homo sapiens) | 26.8
C/C(=C\C(=O)N[C@H](C(=O)N1CCC[C@H]1C(=O)N(c1ccccc1)c1ccc(I)cc1)C(C)(C)C)c1ccc(OP(=O)(O)O)cc1 [STAT6-IN-1] | CISH (Homo sapiens) | 1.6
O=C(COc1ccc2cc(C(=O)Nc3ccccc3)ccc2c1)NCc1ccc(OP(=O)(O)O)c(OP(=O)(O)O)c1 [Stafib-1] | CISH (Homo sapiens) | 1.7

# input for lookup
Ask: Looking for the measured remaining activity at 10 µM of O=C(CCl)Nc1cccc(CNC(=O)[C@H](Cc2ccc(OP(=O)(O)O)cc2)NC(=O)Cc2ccc(F)cc2)c1 [MN551] , can you help?
Result: 3.2

###

Molecular target: SHC3 (Homo sapiens, UniProt Q92529)
Construct: made in house; host or cells: HEK293 (transient transfection), unpurified extract
Sequence (Q92529 whole entry): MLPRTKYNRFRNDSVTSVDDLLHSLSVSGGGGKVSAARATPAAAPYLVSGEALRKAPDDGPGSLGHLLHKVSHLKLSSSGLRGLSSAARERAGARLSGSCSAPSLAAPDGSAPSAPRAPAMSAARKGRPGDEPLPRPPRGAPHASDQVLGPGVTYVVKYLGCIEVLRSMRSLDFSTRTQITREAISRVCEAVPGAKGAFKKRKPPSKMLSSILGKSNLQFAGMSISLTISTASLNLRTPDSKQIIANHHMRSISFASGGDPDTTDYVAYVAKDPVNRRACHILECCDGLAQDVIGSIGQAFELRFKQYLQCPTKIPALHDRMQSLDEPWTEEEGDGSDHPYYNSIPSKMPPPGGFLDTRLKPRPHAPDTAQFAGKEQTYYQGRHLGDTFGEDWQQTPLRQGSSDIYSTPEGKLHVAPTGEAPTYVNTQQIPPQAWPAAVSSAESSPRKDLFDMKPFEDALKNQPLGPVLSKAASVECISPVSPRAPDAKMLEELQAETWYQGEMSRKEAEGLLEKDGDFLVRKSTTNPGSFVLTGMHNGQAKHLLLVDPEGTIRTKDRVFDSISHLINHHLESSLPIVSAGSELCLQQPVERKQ
Assay: biochemical
Type: binding
Settings: dose-response; read-out: KD
REPORTED_METRIC: Kd (µM)
One number for each entry, in µM.

Ask: Looking for the measured Kd of `C/C(=C\C(=O)N[C@H](C(=O)N1CCC[C@H]1C(=O)N(c1ccccc1)c1ccc(I)cc1)C(C)(C)C)c1ccc(OP(=O)(O)O)cc1` , can you help?
Result: 3.6
